- Test system: MCF7 breast
- protocol: NCI-60 one-dose screen, 48 h (100 = growth as untreated, 0 = no growth, -100 = all killed)
- recorded_conditions: 10 µM unless noted
Compounds without any hit were thinned out: in the full panel of roughly 83,000, 20% have a hit.
The reader will find reported growth values listed item by item below.
Write down the numeric answer in % and omit the unit.

Worked set:
compound | scale_unit | growth
CNC(=O)Oc1ccccc1 | % | 87
COC[CH2][Hg][C]#[C][Hg][CH2]COC | % | 55.3

# next compound below
Measured growth (MCF7 breast), entry CC12CCC(=O)C=C1CCC1C2CCC2(C)C(C(=O)COC(=O)Cc3ccc(N(CCCl)CCCl)cc3)CCC12 (stereo not drawn) : 70.5

Sourced from PubChem BioAssay (NCI)
